# System Under Test: Potassium/sodium hyperpolarization-activated cyclic nucleotide-gated channel 4 (Homo sapiens)
# Assay Method Text: Inhibition of human HCN4 heterologously expressed in HEK-293 cells after 30 mins by VIPR assay
# Assay type: cell-based, HEK293
pIC50: −log10 of the molar value.
Readings of pIC50 for the listed compounds
Recorded Endpoint: pIC50

Compound: CCOc1ccccc1C(=O)NCC1(N2CCN(c3ccccc3)CC2)CCCCC1
Readout Number: 4.00

Compound: CN1CCN(C2(CNC(=O)c3ccccc3Cl)Cc3ccccc3C2)CC1
Readout Number: 3.80

Compound: COc1ccccc1C(=O)NCC1(N2CCN(C)CC2)CCc2ccccc2C1 (stereo unspecified)
Readout Number: 5.20

Compound: CCOc1ccccc1C(=O)NCC1(N2CCN(CC)CC2)CCCCC1
Readout Number: 6.80

Compound: CC(C)Oc1ccccc1C(=O)NCC1(N2CCN(C(C)C)CC2)CCCCC1
Readout Number: 5.80

Compound: CN1CCN(C2(CNC(=O)c3ccccc3OCc3ccccc3)Cc3ccccc3C2)CC1
Readout Number: 5.60

Compound: CCOc1ccccc1C(=O)NCC1(N2CCN(C(C)C)CC2)CCCCC1
Readout Number: 6.50

Compound: CCOc1ccccc1C(=O)NCC1(N2CCCCC2)Cc2ccccc2C1
Readout Number: 4.40

Compound: CN1CCN(C2(CNC(=O)c3ccccc3Cl)CCCCC2)CC1
Readout Number: 4.50

Compound: COc1ccccc1C(=O)NCC1(N2CCN(C)CC2)Cc2ccccc2C1
Readout Number: 4.70

Compound: CCc1ccccc1C(=O)NCC1(N2CCN(C(C)C)CC2)CCCCC1
Readout Number: 4.10

###

# System Under Test: Potassium/sodium hyperpolarization-activated cyclic nucleotide-gated channel 3 (Homo sapiens)
# Sequence (Q9P1Z3 whole entry): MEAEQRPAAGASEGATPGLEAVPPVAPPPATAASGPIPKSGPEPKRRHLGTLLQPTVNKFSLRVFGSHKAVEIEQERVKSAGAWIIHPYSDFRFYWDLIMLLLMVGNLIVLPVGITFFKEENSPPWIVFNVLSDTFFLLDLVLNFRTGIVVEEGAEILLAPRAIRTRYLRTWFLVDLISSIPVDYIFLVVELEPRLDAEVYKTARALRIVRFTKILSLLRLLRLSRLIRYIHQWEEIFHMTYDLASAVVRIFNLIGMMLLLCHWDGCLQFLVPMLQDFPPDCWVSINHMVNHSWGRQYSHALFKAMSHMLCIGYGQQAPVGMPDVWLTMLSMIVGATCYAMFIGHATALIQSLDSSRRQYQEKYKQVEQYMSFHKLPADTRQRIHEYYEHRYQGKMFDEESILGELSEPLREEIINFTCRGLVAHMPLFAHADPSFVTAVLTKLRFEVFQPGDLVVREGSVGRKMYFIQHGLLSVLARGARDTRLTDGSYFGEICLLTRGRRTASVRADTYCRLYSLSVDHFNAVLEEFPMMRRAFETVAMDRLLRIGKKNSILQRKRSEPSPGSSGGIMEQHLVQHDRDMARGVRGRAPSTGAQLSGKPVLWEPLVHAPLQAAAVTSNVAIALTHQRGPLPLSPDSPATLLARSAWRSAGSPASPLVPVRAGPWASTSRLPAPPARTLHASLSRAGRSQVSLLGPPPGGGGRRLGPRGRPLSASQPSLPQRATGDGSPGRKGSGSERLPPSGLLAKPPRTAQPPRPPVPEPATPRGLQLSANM
# Assay Method Text: Inhibition of human HCN3 heterologously expressed in HEK-293 cells after 30 mins by VIPR assay
pIC50: −log10 of the molar value.
Recorded Endpoint: pIC50

Smiles Str: CCOc1ccccc1C(=O)NCC1(N2CCNCC2)CCCCC1
Readout Number: 5.50

###

# Organism: Homo sapiens
# Assay Method Text: Selectivity for human HCN1 over human HCN4

Smiles Str: Cc1ccccc1C(=O)NCC1(N2CCN(C)CC2)CCCCC1
Selectivity ratio: 10
//
Smiles Str: COc1ccccc1C(=O)NCC1(N2CCN(C)CC2)CCCCC1
Selectivity ratio: 10
//
Smiles Str: CCOc1ccccc1C(=O)NCC1(N2CCNCC2)CCCCC1
Selectivity ratio: 10
//
Smiles Str: CCOc1ccccc1C(=O)NCC1(N2CCN(C3CC3)CC2)CCCCC1
Selectivity ratio: 10
//
Smiles Str: CN1CCN(C2(CNC(=O)c3ccccc3Cl)CCCCC2)CC1
Selectivity ratio: 10
//
Smiles Str: CCc1ccccc1C(=O)NCC1(N2CCN(C(C)C)CC2)CCCCC1
Selectivity ratio: 10
//
Smiles Str: CC(C)Oc1ccccc1C(=O)NCC1(N2CCN(C(C)C)CC2)CCCCC1
Selectivity ratio: 10
//
Smiles Str: CCOc1ccccc1C(=O)NCC1(N2CCN(c3ccccc3)CC2)CCCCC1
Selectivity ratio: 10
//
Smiles Str: CCOc1ccccc1C(=O)NCC1(N2CCN(CC)CC2)CCCCC1
Selectivity ratio: 10
//
Smiles Str: CCOc1ccccc1C(=O)NCC1(N2CCN(C(C)C)CC2)CCCCC1
Selectivity ratio: 10
//
Smiles Str: CCOc1ccccc1C(=O)NCC1(N2CCN(C)CC2)CCCCC1
Selectivity ratio: 10

###

# System Under Test: Potassium/sodium hyperpolarization-activated cyclic nucleotide-gated channel 1 (Homo sapiens)
# Sequence (O60741 whole entry): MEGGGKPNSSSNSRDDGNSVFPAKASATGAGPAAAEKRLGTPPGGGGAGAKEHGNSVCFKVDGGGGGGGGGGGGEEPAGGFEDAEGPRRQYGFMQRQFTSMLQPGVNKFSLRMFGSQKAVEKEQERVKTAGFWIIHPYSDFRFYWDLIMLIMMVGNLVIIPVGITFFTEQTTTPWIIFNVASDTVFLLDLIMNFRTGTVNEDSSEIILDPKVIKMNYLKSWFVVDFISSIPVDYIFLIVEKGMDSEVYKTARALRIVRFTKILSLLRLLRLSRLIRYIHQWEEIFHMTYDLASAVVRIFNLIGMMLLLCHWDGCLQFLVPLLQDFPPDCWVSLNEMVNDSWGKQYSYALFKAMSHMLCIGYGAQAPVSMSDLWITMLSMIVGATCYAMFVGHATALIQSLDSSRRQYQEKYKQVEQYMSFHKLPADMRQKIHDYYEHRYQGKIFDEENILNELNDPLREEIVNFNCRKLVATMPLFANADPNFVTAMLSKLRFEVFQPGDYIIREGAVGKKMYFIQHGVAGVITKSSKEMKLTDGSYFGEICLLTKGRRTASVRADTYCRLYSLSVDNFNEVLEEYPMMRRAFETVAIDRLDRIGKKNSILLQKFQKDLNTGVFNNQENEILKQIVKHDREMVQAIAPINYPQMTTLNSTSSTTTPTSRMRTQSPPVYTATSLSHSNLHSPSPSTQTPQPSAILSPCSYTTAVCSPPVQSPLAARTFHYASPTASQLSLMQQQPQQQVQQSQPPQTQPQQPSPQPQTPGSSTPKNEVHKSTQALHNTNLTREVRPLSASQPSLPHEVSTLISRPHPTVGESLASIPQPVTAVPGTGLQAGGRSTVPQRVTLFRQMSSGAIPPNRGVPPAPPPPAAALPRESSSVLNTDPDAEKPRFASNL
# Assay Method Text: Inhibition of human HCN1 heterologously expressed in HEK-293 cells after 30 mins by VIPR assay
pIC50: −log10 of the molar value.

Compound: COc1ccccc1C(=O)NCC(c1ccc(C)cc1)N1CCN(C)CC1 (stereo unspecified)
Modifier Sign: =
pIC50: 5.60

Compound: CCOc1ccccc1C(=O)NCC1(N2CCCCC2)Cc2ccccc2C1
Modifier Sign: =
pIC50: 4.80

Compound: CCOc1ccccc1C(=O)NCC1(N2CCN(C)CC2)Cc2ccccc2C1
Modifier Sign: =
pIC50: 6.40

Compound: COc1ccc(C(=O)NCC2(N3CCN(C)CC3)Cc3ccccc3C2)cc1
Modifier Sign: =
pIC50: 4.00

Compound: CCc1ccccc1C(=O)NCC1(N2CCN(C(C)C)CC2)CCCCC1
Modifier Sign: <
pIC50: 3.70

Compound: COc1ccccc1C(=O)NCC1(N2CCN(C(C)C)CC2)CCN(c2ccccc2)CC1
Modifier Sign: =
pIC50: 6.20

Compound: CCOc1ccccc1C(=O)NCC1(N2CCN(C(C)C)CC2)CCOCC1
Modifier Sign: =
pIC50: 6.50

Compound: CCOc1ccccc1C(=O)NCC1(N2CCNCC2)CCCCC1
Modifier Sign: =
pIC50: 6.40

Compound: COc1ccccc1C(=O)NCC1(N2CCCCC2)Cc2ccccc2C1
Modifier Sign: =
pIC50: 4.30

Compound: CCOc1ccccc1C(=O)NCC1(N2CCN(CC)CC2)CCCCC1
Modifier Sign: =
pIC50: 7.50

Compound: CCOc1ccccc1C(=O)NCC1(N2CCN(C(C)C)CC2)CCCCC1
Modifier Sign: =
pIC50: 7.80

###

# System Under Test: Potassium/sodium hyperpolarization-activated cyclic nucleotide-gated channel 4 (Homo sapiens)
# Assay Method Text: Inhibition of human HCN4 heterologously expressed in HEK-293 cells after 30 mins by VIPR assay
Recorded Endpoint: IC50 (µM)

Compound: Cc1ccccc1C(=O)NCC1(N2CCN(C)CC2)CCCCC1
Modifier Sign: >
Readout Number: 200
//
Compound: CCN(c1ccccc1)c1cc(NC)[n+](C)c(C)n1.[Cl-]
Modifier Sign: =
Readout Number: 0.0316
//
Compound: COc1ccc(C(=O)NCC2(N3CCN(C)CC3)Cc3ccccc3C2)cc1
Modifier Sign: >
Readout Number: 200
//
Compound: COc1cccc(C(=O)NCC2(N3CCN(C)CC3)Cc3ccccc3C2)c1
Modifier Sign: >
Readout Number: 200
//
Compound: COc1ccccc1C(=O)NCC1(N2CCN(C(C)C)CC2)CCN(c2ccccc2)CC1
Modifier Sign: =
Readout Number: 5.01
//
Compound: CCOc1ccccc1C(=O)NCC1(N2CCN(C)CC2)CCCCC1
Modifier Sign: =
Readout Number: 1.26
//
Compound: CN1CCN(C2(CNC(=O)c3ccccc3O)Cc3ccccc3C2)CC1
Modifier Sign: >
Readout Number: 200
//
Compound: COc1ccccc1C(=O)NCC(c1ccc(C)cc1)N1CCN(C)CC1 (stereo unspecified)
Modifier Sign: =
Readout Number: 20
//
Compound: CCOc1ccccc1C(=O)NCC1(N2CCNCC2)CCCCC1
Modifier Sign: =
Readout Number: 3.98
//
Compound: CCOc1ccccc1C(=O)NCC1(N2CCN(C(C)C)CC2)CCOCC1
Modifier Sign: =
Readout Number: 3.98
//
Compound: COc1ccccc1C(=O)NCC1(N2CCCCC2)Cc2ccccc2C1
Modifier Sign: >
Readout Number: 200

###

# System Under Test: Potassium/sodium hyperpolarization-activated cyclic nucleotide-gated channel 4 (Homo sapiens, UniProt Q9Y3Q4)
# Sequence (Q9Y3Q4 whole entry): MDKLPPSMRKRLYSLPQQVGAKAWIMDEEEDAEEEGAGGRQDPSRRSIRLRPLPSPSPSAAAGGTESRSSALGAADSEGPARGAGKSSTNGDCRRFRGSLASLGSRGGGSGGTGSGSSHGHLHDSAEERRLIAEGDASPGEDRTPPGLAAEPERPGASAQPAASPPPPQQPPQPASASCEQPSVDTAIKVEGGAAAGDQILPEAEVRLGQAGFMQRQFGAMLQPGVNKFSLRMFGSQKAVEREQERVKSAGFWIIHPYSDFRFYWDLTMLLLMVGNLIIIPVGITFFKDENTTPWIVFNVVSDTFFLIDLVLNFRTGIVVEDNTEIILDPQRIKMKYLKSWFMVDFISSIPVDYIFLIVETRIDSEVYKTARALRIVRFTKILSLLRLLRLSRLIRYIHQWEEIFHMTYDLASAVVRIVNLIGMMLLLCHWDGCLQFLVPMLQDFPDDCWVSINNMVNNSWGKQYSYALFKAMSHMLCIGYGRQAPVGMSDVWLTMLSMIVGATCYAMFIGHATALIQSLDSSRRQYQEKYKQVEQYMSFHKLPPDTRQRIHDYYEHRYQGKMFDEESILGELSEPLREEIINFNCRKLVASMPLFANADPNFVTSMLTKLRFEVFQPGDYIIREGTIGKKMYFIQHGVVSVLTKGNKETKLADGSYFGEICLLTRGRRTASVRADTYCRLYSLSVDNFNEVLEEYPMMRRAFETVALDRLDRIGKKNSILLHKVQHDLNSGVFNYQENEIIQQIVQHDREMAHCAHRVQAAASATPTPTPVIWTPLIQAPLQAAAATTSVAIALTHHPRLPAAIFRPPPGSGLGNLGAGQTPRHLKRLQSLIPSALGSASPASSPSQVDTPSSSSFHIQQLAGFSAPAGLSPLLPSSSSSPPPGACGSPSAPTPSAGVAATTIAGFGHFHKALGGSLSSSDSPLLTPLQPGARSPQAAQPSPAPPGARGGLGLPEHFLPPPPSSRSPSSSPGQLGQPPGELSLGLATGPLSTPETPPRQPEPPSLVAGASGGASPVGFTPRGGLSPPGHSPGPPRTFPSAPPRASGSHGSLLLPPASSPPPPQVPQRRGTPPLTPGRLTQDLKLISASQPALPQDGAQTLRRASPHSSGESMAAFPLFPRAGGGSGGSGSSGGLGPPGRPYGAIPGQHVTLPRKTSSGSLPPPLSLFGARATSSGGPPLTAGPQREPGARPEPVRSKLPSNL
# Assay Method Text: Inhibition of human HCN4 heterologously expressed in HEK-293 cells after 30 mins by VIPR assay
Recorded Endpoint: IC50 (µM)

Smiles Str: COc1ccccc1C(=O)NCC1(N2CCN(C)CC2)CCCCC1
Recorded Endpoint: IC50
Modifier Sign: =
Readout Number: 5.01

Smiles Str: CCOc1ccccc1C(=O)NCC1(N2CCN(C)CC2)Cc2ccccc2C1
Recorded Endpoint: IC50
Modifier Sign: =
Readout Number: 5.01

Smiles Str: CCOc1ccccc1C(=O)NCC1(N2CCN(C3CCC3)CC2)CCCCC1
Recorded Endpoint: IC50
Modifier Sign: =
Readout Number: 0.794

Smiles Str: COc1ccccc1C(=O)NCC1(N2CCN(C(C)C)CC2)CCCCC1
Recorded Endpoint: IC50
Modifier Sign: =
Readout Number: 0.794

Smiles Str: CCOc1ccccc1C(=O)NCC1(N2CCN(C3CCCC3)CC2)CCCCC1
Recorded Endpoint: IC50
Modifier Sign: =
Readout Number: 0.794

Smiles Str: CCOc1ccccc1C(=O)NCC1(N2CCN(C)CC2)CCCC1
Recorded Endpoint: IC50
Modifier Sign: =
Readout Number: 5.01

Smiles Str: CCOc1ccccc1C(=O)NCC1(N2CCN(C3CC3)CC2)CCCCC1
Recorded Endpoint: IC50
Modifier Sign: =
Readout Number: 0.316

Smiles Str: CN1CCN(C2(CNC(=O)c3ccccc3F)Cc3ccccc3C2)CC1
Recorded Endpoint: IC50
Modifier Sign: >
Readout Number: 200

Smiles Str: CN1CCN(C2(CNC(=O)c3ccccc3OC(F)(F)F)Cc3ccccc3C2)CC1
Recorded Endpoint: IC50
Modifier Sign: >
Readout Number: 200

Smiles Str: CCOc1ccccc1C(=O)NCC1(N2CCN(C(C)C)CC2)Cc2ccccc2C1
Recorded Endpoint: IC50
Modifier Sign: =
Readout Number: 3.16
